These entries and their values trace back to paper PMC8627785.

Reported values of pKi for individual entries
biological target: recombinant human IDE (Homo sapiens, UniProt P14735); assay: IDE substrate V fluorescence dequenching assay; type: biochemical
Sequence (P14735 whole entry): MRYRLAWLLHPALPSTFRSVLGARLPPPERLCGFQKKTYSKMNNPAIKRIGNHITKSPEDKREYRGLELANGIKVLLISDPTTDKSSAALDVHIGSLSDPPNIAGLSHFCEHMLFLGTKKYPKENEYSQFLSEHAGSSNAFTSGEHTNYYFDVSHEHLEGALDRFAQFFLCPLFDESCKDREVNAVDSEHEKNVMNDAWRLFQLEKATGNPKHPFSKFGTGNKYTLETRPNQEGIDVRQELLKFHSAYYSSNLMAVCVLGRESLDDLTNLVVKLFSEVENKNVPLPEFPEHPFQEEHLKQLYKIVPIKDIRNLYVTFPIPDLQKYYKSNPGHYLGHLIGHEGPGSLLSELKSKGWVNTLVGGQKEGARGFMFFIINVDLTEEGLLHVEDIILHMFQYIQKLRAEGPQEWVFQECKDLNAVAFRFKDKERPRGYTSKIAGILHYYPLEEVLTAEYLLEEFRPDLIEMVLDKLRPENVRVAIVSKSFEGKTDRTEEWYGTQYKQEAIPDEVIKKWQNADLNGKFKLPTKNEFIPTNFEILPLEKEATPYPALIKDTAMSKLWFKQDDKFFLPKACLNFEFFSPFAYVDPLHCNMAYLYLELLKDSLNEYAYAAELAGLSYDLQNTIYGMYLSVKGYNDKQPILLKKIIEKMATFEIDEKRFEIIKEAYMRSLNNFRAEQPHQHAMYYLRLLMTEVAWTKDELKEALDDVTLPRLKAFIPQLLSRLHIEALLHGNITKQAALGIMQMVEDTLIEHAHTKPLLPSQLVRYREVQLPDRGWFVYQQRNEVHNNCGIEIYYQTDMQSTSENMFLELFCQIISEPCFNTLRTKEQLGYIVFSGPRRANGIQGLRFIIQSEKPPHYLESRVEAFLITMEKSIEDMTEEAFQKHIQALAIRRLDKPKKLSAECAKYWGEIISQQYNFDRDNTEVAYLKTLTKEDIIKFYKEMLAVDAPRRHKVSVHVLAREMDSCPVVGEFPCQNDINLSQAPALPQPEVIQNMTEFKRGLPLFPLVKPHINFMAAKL
Just so you know, pKi here is -log10 of the concentration in molar units; reply with that number alone.

Illustrative cases are given below, each with its answer.
Cc1ccc(NS(=O)(=O)c2cccs2)c(=S)n1O 4.57
CS(=O)(=O)Nc1ccc[nH]c1=S 4.21
CC1(C)[C@H]2CC[C@]1(CS(=O)(=O)Nc1cccn(O)c1=S)C(=O)C2 4.34
O=C(Nc1cccn(O)c1=S)c1cccs1 3.90
O=S(=O)(Nc1ccn(O)c(=S)c1)c1cccs1 4.54
O=S(=O)(Nc1cccn(O)c1=S)c1cccs1 4.82
Cc1csc(S(=O)(=O)Nc2cccn(O)c2=S)c1 4.66
Cn1cc(S(=O)(=O)Nc2cccn(O)c2=S)cn1 4.27
Cn1ccc(S(=O)(=O)Nc2cccn(O)c2=S)n1 4.44
O=S(=O)(Nc1cccn(O)c1=S)c1cccc2nsnc12 4.51

Dear colleague, I am looking for the recorded pKi of the following molecule: O=C(Nc1cccn(O)c1=S)c1ccccc1 3.85

Entry to check: O=S(=O)(Nc1ccc(=S)n(O)c1)c1cccs1 4.08

Entry to check: Cc1ccc(S(=O)(=O)Nc2cccn(O)c2=S)s1 4.57

Entry to check: O=S(=O)(Nc1cccn(O)c1=S)C1CC1 4.02

Entry to check: O=S(=O)(Nc1cccn(O)c1=S)c1ccc(-c2ccccc2)s1 5.00

Entry to check: Cc1cc(NS(=O)(=O)c2cccs2)c(=S)n(O)c1 4.74

Entry to check: O=S(=O)(Nc1cccn(O)c1=S)c1ccsc1 4.59

====

molecular target: recombinant human IDE (Homo sapiens); assay: IDE fluorescence polarization-based degradation assays; type: biochemical; conditions: read-out: Ki Amylin; substrate amylin; Ki from IC50 via Cheng-Prusoff
Reported values of Ki for individual entries
Respond with the bare value in µM.

Illustrative cases are given below, each with its answer.
compound	reported-measurement
On1ccccc1=S [Compound 5, 1,2-hydroxypyridinethione]	41
O=S(=O)(Nc1cccn(O)c1=S)c1ccc(Cl)s1 [Compound 43]	7
NS(=O)(=O)c1cccn(O)c1=S [Compound 8, 3-sulfonamide-1,2-HOPTO]	31

Let's switch to this compound now.
Dear colleague, I am looking for the recorded Ki of the following compound: O=S(=O)(Nc1cccn(O)c1=S)c1ccc(Br)s1 [Compound 44] 7

====

molecular target: recombinant human IDE (Homo sapiens, UniProt P14735); experiment: IDE fluorescence polarization-based degradation assays; format: biochemical; conditions: Ki Gluc., substrate glucagon; Ki from IC50 via Cheng-Prusoff
measure: Ki (µM)
Respond with the bare value in µM.

O=S(=O)(Nc1cccn(O)c1=S)c1ccc(-c2ccccc2)s1 2

Kindly state the measured Ki obtained for CC1(C)[C@H]2CC[C@]1(CS(=O)(=O)Nc1cccn(O)c1=S)C(=O)C2 with recombinant human IDE (Homo sapiens, UniProt P14735). 7

Entry to check: Cc1csc(S(=O)(=O)Nc2cccn(O)c2=S)c1 5

Entry to check: O=S(=O)(Nc1cccn(O)c1=S)C1CC1 20

Entry to check: O=S(=O)(Nc1ccn(O)c(=S)c1)c1cccs1 11

Entry to check: CS(=O)(=O)Nc1ccc[nH]c1=S 172

Entry to check: Cn1cc(S(=O)(=O)Nc2cccn(O)c2=S)cn1 7

Entry to check: O=S(=O)(Nc1ccc(=S)n(O)c1)c1cccs1 20

Entry to check: Cc1cc(NS(=O)(=O)c2cccs2)c(=S)n(O)c1 6

Entry to check: O=S(=O)(Nc1cccn(O)c1=S)c1cccs1 3
